System: P. falciparum asexual blood stage parasites (strains NF54, D6, K1, W2, 7G8, TM90C2A, V1/S)
Assay: [3H]-hypoxanthine incorporation growth inhibition assay, asexual blood stage
Assay type: cell-based, Plasmodium falciparum
Details: Plasmodium falciparum
pIC50: −log10 of the molar value.
ASSAY_ENDPOINT: pIC50

Here is how some compounds turned out for pIC50.
| COMPOUND | TARGET_UNDER_TEST | pIC50 |
| --- | --- | --- |
| CCCCN(CCCC)CCC(O)c1cc2c(Cl)cc(Cl)cc2c2cc(C(F)(F)F)ccc12 (stereo not shown) | P. falciparum asexual blood stage parasites (strains NF54, D6, K1, W2, 7G8, TM90C2A, V1/S) | > 8.40 |
| OC(c1cc(C(F)(F)F)nc2c(C(F)(F)F)cccc12)C1CCCCN1 (racemic) [racemic mefloquine, mefloquine] | P. falciparum asexual blood stage parasites (strains NF54, D6, K1, W2, 7G8, TM90C2A, V1/S) | > 8.00 |
| COc1cc(NC(C)CCCN)c2ncccc2c1 (stereo not shown) | P. falciparum asexual blood stage parasites (strains NF54, D6, K1, W2, 7G8, TM90C2A, V1/S) | 5.60 to 6.30 |

Reported pIC50 ( CCCCN(CCCC)CC(O)c1cc(Cl)cc2c1-c1ccc(Cl)cc1/C2=C/c1ccc(Cl)cc1 (stereo not shown) ) = > 8.40
